assay: Solubility of the compound in phosphate buffer at pH 7.4; assay type: physicochemical
readout kind: solubility (µM)

Example cases with answers are listed next.
C[C@@H](Nc1cc(F)cc(F)c1)c1cc(C(=O)N2CCOCC2)cn2c(=O)cc(N3CCOCC3)nc12 :: 316
CC(Nc1cc(F)c(F)c(F)c1)c1cc(C(=O)N(C)C)cn2c(=O)cc(N3CCOCC3)nc12 (single isomer, unassigned; (-)) :: 10
CC(Nc1cccc(F)c1F)c1cc(C(=O)N(C)C)cn2c(=O)cc(N3CCOCC3)nc12 (racemic) :: 28
CC(Nc1ccc(F)c(F)c1)c1cc(C(=O)N(C)C)cn2c(=O)cc(N3CCOCC3)nc12 (single isomer, unassigned; (-)) :: 20
CC(Nc1cc(F)cc(F)c1F)c1cc(C(=O)N(C)C)cn2c(=O)cc(N3CCOCC3)nc12 (single isomer, unassigned; (-)) :: 46
CC(Nc1ccc(F)cc1)c1cc(C(=O)N(C)C)cn2c(=O)cc(N3CCOCC3)nc12 (single isomer, unassigned; (-)) :: 130
CC(Nc1cc(F)cc(F)c1)c1cc(C(=O)N(C)CCO)cn2c(=O)cc(N3CCOCC3)nc12 (racemic) :: 930

P. CC(Nc1cccc(F)c1)c1cc(C(=O)N(C)C)cn2c(=O)cc(N3CCOCC3)nc12 (racemic)
Q. C[C@@H](Nc1cc(F)cc(F)c1)c1cc(C(=O)N(C)C)cn2c(=O)cc(N3CCOCC3)nc12
Q. For the pair P and Q , which member has the lower solubility number? I would appreciate it if you answered with the label of your choice.
A. Q

====

assay: Fraction unbound in human plasma; type: ADME, cell-free
readout kind: fraction unbound

CC(Nc1ccc(F)c(F)c1)c1cc(C(=O)N(C)C)cn2c(=O)cc(N3CCOCC3)nc12 (single isomer, unassigned; (-)) :: 0.14

a. CC(Nc1ccc(F)cc1)c1cc(C(=O)N(C)C)cn2c(=O)cc(N3CCOCC3)nc12 (single isomer, unassigned; (-))
b. C[C@@H](Nc1cc(F)cc(F)c1)c1cc(C(=O)N(C)C)cn2c(=O)cc(N3CCOCC3)nc12
c. CC(Nc1cccc(Cl)c1F)c1cc(C(=O)NCCN(C)C)cn2c(=O)cc(N3CCOCC3)nc12 (single isomer, unassigned; (-))
Q. Hey, quick one: sort these by fraction unbound, low to high? Could you list the labels in the order requested?
A. c, b, a

====

experiment: Total plasma concentration in SCID mouse xenografted with PTEN-null human PC3 cells at 100 mg/kg, po measured after 4 hrs; format: ADME, organism-based, PC-3; design: dose 100 mg/kg, route oral
readout kind: concentration at 4 h (µM)

CC(Nc1ccc(F)cc1)c1cc(C(=O)N(C)C)cn2c(=O)cc(N3CCOCC3)nc12 (single isomer, unassigned; (-)) :: 8.1
C[C@@H](Nc1cc(F)cc(F)c1)c1cc(C(=O)N(C)C)cn2c(=O)cc(N3CCOCC3)nc12 :: 6.8

====

target: Phosphatidylinositol 4,5-bisphosphate 3-kinase catalytic subunit beta isoform (Homo sapiens); test: Inhibition of human recombinant PI3Kbeta assessed as depletion of ATP substrate by Ultra Glo luciferase assay
Sequence (P42338 whole entry, canonical isoform): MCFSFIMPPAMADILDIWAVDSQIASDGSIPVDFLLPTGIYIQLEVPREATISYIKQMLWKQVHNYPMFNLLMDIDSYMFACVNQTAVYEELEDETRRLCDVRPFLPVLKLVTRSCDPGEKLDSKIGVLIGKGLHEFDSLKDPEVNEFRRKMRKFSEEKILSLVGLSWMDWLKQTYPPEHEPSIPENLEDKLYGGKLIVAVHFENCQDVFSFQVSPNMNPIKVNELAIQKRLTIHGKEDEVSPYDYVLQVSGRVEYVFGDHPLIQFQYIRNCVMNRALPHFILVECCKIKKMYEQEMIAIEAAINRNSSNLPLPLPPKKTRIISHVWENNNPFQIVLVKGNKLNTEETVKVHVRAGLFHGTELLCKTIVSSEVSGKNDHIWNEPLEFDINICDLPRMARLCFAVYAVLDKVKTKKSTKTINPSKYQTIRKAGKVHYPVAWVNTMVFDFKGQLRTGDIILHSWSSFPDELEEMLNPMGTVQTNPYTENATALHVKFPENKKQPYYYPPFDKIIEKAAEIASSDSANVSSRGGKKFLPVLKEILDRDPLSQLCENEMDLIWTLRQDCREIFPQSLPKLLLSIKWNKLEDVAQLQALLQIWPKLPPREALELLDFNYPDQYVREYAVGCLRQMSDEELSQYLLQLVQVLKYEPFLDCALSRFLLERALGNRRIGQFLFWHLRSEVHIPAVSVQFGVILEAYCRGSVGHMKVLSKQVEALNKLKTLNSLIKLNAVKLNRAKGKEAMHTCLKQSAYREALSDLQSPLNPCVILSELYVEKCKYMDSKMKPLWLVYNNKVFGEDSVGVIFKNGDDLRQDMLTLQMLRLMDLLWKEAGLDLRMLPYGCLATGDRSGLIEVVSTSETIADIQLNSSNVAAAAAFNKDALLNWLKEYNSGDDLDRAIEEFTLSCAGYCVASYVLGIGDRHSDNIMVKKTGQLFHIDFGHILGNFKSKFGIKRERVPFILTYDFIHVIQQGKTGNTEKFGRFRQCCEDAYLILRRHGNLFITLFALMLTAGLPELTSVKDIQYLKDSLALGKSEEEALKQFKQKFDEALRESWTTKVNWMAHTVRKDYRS
pIC50: −log10 of the molar value.
readout kind: pIC50

CC(Nc1ccccc1)c1cc(C(=O)NCCN(C)C)cn2c(=O)cc(N3CCOCC3)nc12 (single isomer, unassigned; (-)) :: 8.10

I. CC(Nc1ccc(F)c(F)c1)c1cc(C(=O)N(C)C)cn2c(=O)cc(N3CCOCC3)nc12 (single isomer, unassigned; (-))
II. CC(Nc1ccc(F)cc1)c1cc(C(=O)N(C)C)cn2c(=O)cc(N3CCOCC3)nc12 (single isomer, unassigned; (-))
Q. Lab log: flag the item ( I or II ) with the smaller pIC50 figure. Please indicate the selected item by its label.
A. II
(II: 7.43, I: 8.15)

P. C[C@@H](Nc1cc(F)cc(F)c1)c1cc(C(=O)N(C)C)cn2c(=O)cc(N3CCOCC3)nc12
Q. CC(Nc1ccccc1)c1cc(C(=O)N(C)C)cn2c(=O)cc(N3CCOCC3)nc12 (single isomer, unassigned; (+))
Q. Among P and Q , which shows a numerically higher pIC50 result? Write down the label of the entry you select.
A. P
(P: 8.30, Q: 7.96)
